Test system: panel of cancer cell lines
Assay: Cell viability (CellTiter-Glo) dose-response across cancer cell line panel;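 further: after 72 h compound incubation with CellTiter-Glo ATP readout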
Assay type: cell-based, human
Conditions: Homo sapiens, LUDLU-1, LUDLU-1
For each record, write down the corresponding pEC50.
Numbers only, as −log10 of the molar value.

| Chem smiles | Tested system | pEC50 |
| --- | --- | --- |
| NS(=O)(=O)OC[C@@H]1C[C@@H](n2ccc3c(N[C@H]4CCc5ccccc54)ncnc32)C[C@@H]1O | panel of cancer cell lines | 5.60 |

Hi! What's the reported pEC50 for COCc1ccccc1NCc1ccc([C@H]2[C@@H](O)CCCc3cncn32)c(-c2ccccc2Cl)c1 on panel of cancer cell lines?
5.47

###

System: panel of cancer cell lines
Assay: Cell viability (CellTiter-Glo) dose-response across cancer cell line panel;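 further: after 72 h compound incubation with CellTiter-Glo ATP readout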
Type: cell-based, human
Settings: Homo sapiens, MM603 cells
Experimental: Next, we explored the effect of CSN5 inhibition on the viability of cancer cells. […] A standardized CellTiter-Glo Assay (Promega #G7570) based on the quantification of ATP was applied according to the manufacturer's protocol to measure the amount of viable cells in culture. […] EC50 values were calculated from the plot of percentage of inhibition versus inhibitor concentration using the nonlinear regression analysis software Origin 7.5SR6 (OriginLab Corp.).
Measured attribute: EC50 (µM)
Answers are plain numbers, in µM.

Would you kindly share the measured EC50 for COCc1ccccc1NCc1ccc([C@@H]2[C@H](O)CCCc3cncn32)c(-c2ccccc2Cl)c1 ?
9.82

###

Test system: panel of cancer cell lines
Assay: Cell viability (CellTiter-Glo) dose-response across cancer cell line panel;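 further: after 72 h compound incubation with CellTiter-Glo ATP readout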
Assay type: cell-based, human
Conditions: Homo sapiens, COLO-680N
Measured attribute: pEC50
Numbers only, as −log10 of the molar value.

Hi! What's the reported pEC50 for CC(C)C[C@H](NC(=O)[C@H](Cc1ccccc1)NC(=O)c1cnccn1)B(O)O on panel of cancer cell lines?
7.91

###

Test system: panel of cancer cell lines
Experiment: Cell viability (CellTiter-Glo) dose-response across cancer cell line panel;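 further: after 72 h compound incubation with CellTiter-Glo ATP readout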
Assay type: cell-based, human
Settings: Homo sapiens, SW480, SW480
Measured attribute: EC50 (nM)
Give bare numbers, in nM.

Observe how each entry below is paired with its result.
| Chem smiles | Measured attribute | Meas value |
| --- | --- | --- |
| CC(C)C[C@H](NC(=O)[C@H](Cc1ccccc1)NC(=O)c1cnccn1)B(O)O | EC50 | 7.08 |
| COCc1ccccc1NCc1ccc([C@H]2[C@@H](O)CCCc3cncn32)c(-c2ccccc2Cl)c1 | EC50 | 1840 |

Let us examine a further case.
Would you kindly share the measured EC50 for NS(=O)(=O)OC[C@@H]1C[C@@H](n2ccc3c(N[C@H]4CCc5ccccc54)ncnc32)C[C@@H]1O ?
399

###

Test system: panel of cancer cell lines
Assay: Cell viability (CellTiter-Glo) dose-response across cancer cell line panel;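 further: after 72 h compound incubation with CellTiter-Glo ATP readout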
Type: cell-based, human
Conditions: Homo sapiens, NCI-H650, NCI-H650
Measured attribute: EC50

| Compound | Tested system | EC50 |
| --- | --- | --- |
| COCc1ccccc1NCc1ccc([C@H]2[C@@H](O)CCCc3cncn32)c(-c2ccccc2Cl)c1 [CSN5i-2] | panel of cancer cell lines | > 30000 nM |
| CC(C)C[C@H](NC(=O)[C@H](Cc1ccccc1)NC(=O)c1cnccn1)B(O)O [Bortezomib] | panel of cancer cell lines | 118 nM |

Let us examine a further case.
Would you kindly share the measured EC50 for NS(=O)(=O)OC[C@@H]1C[C@@H](n2ccc3c(N[C@H]4CCc5ccccc54)ncnc32)C[C@@H]1O [MLN4924] ?
424 nM
